# assay-target: Matrix metalloproteinase-9 (Homo sapiens, UniProt P14780)
# Sequence (P14780 whole entry): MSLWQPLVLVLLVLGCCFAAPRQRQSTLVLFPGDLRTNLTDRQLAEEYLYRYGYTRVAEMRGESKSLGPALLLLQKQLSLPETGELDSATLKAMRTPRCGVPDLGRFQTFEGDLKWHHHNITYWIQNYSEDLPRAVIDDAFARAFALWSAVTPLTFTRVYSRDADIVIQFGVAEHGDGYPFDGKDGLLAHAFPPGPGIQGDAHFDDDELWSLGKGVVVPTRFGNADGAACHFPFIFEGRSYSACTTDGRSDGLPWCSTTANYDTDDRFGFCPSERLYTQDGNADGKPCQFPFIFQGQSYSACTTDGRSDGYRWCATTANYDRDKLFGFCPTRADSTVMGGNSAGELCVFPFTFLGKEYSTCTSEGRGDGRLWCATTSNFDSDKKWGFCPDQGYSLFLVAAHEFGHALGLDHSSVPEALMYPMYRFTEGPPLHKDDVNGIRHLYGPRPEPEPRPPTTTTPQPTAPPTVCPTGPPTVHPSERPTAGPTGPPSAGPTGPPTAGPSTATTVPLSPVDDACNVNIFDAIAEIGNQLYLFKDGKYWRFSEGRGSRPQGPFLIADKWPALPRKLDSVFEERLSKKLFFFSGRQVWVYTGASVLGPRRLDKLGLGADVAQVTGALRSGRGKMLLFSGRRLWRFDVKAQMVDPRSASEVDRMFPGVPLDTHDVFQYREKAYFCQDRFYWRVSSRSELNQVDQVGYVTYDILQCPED
# test-method-notes: Inhibition of human recombinant MMP9
Note to self: use MET only for IC50 readings below 6 µM; a reading exactly at 6 µM still gets NOT MET.

Does the reported IC50 of `O=C(CCc1cc2cc(Br)ccc2oc1=O)NO` stay below 6 µM?
NOT MET

Does the reported IC50 of `Cc1ccc2oc(=O)c(CCC(=O)NO)cc2c1` stay below 6 µM?
MET

Does the reported IC50 of `COc1ccc2oc(=O)c(CCC(=O)NO)cc2c1` stay below 6 µM?
MET

Does the reported IC50 of `C/C=C/C=C\C=C1\C=C(CCC(=O)NO)C(=O)OC1` stay below 6 µM?
MET

Does the reported IC50 of `O=C(CCc1cc2cc(Cl)ccc2oc1=O)NO` stay below 6 µM?
NOT MET

Does the reported IC50 of `O=C(CCc1cc2ccccc2oc1=O)NO` stay below 6 µM?
MET

Does the reported IC50 of Cc1ccc2oc(=O)c(CC(C)C(=O)NO)cc2c1 (configuration not stated) stay below 6 µM?
NOT MET
